- Test protocol: gradient 5% acetonitrile 3 min, to 50% in 2 min, to 85% in 15 min, held 3 min, 100 µL/min
- Recorded conditions: column: Zorbax Extend-C18 2.1 x 50 mm; eluents: water / acetonitrile, 0.1% formic acid
Measured endpoint: RP-LC retention time (s)

# Molecule, RP-LC retention time [s]
rows = [
    ("O=C(Cn1ccc2sccc2c1=O)Nc1cc(F)cc(F)c1", 784),
    ("Cc1cccc(N2CC(C(=O)N3CCCCCC3)CC2=O)c1 (configuration not stated)", 802),
    ("CS(=O)(=O)c1ccc(Cc2nnc(NC(=O)C3CCCC3)o2)cc1", 632),
]

I: Cc1ccc(C(=O)N2CCC(c3nc(-c4ccccc4)no3)C2)s1 (configuration not stated)
II: O=C(NC1CCCCCCC1)C1CCN(C(=O)c2cc(-c3cccnc3)n[nH]2)CC1
Data request: Of the pair I and II , name the member with the lesser recorded RP-LC retention time. Refer to your chosen item by its label in the answer.
Data returned: II

A: COc1ccc(COc2cc3oc(=O)c4cc(C(C)O)ccc4c3cc2OC)cc1 (configuration not stated)
B: CC(C(=O)NCCN1CCCCC1)n1c(=O)c(C(F)(F)F)nc2ccccc21 (configuration not stated)
Data request: Field: entry with larger RP-LC retention time (options A / B ). Refer to your chosen item by its label in the answer.
Data returned: A
